# TARGET OR SYSTEM: D5R (Homo sapiens)
# Sequence (P21918 whole entry): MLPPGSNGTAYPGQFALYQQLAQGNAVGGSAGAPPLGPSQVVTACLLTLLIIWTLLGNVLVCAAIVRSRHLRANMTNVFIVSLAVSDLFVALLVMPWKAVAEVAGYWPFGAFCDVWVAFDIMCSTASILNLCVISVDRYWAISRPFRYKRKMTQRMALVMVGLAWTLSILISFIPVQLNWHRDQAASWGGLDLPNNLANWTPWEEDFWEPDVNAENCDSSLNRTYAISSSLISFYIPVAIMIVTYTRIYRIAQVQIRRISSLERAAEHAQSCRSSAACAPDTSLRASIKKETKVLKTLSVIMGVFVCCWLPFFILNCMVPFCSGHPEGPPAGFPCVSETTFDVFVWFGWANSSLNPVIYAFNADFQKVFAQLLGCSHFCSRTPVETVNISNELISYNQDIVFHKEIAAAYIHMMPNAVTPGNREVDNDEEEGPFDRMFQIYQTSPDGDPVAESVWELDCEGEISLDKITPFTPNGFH
# RUN DESCRIPTION: D5R cAMP Glosensor assay in transiently transfected HEK293 cells
# Assay type: cell-based
# MEASUREMENT CONDITIONS: read-out: Gs-cAMP EC50; D5R, HEK293 transient, Glosensor
OUTCOME MEASURE: pEC50
Remember, pEC50 is on a log scale: it is -log10 of the molar concentration.

Q: Item: NC[C@@H]1O[C@H](C23CC4CC(CC(C4)C2)C3)Cc2c1ccc(O)c2O [A-77636] Test system: D5R (Homo sapiens) Read-out: pEC50 Value: ?
A: 9.08
